Values compiled from paper PMC6522912.

# Target: UniProt P14900
# Test description: biochemical
# Details: 0.25 h, Table S1, PKIS screening; read-out: RA [%] at 100 µM MurD
Readings of remaining activity at 100 µM for the listed compounds
# include the unit after the value

Solved cases below.
Compound: Cc1cccc(Nc2ncc(-c3ccccc3)o2)c1 [GW632046X]
Assay metric: remaining activity at 100 µM
Experimental result: 84%
//
Compound: Fc1ccc(-c2cc(-c3c[nH]nc3-c3ccccn3)ccn2)cc1 [GW680975X]
Assay metric: remaining activity at 100 µM
Experimental result: 84%
//
Compound: CCNC(=O)O[C@H]1CN[C@H](C#Cc2cc3ncnc(Nc4ccc(OCc5cccc(F)c5)c(Cl)c4)c3s2)C1 [GSK192082A]
Assay metric: remaining activity at 100 µM
Experimental result: 70%
//
Compound: CNC(=O)c1cncc(/C=C/c2c(Cl)cccc2Cl)c1 [GW445014X]
Assay metric: remaining activity at 100 µM
Experimental result: 80%
//
Compound: Cc1cc(O)cc(C)c1/C=C/c1cncc(C(=O)OC(C)(C)C)c1 [GW439255X]
Assay metric: remaining activity at 100 µM
Experimental result: 96%

Data request, read-out remaining activity at 100 µM, for CCn1c(-c2nonc2N)nc2cnc(Oc3cccc(NC(=O)c4ccc(OCCN5CCOCC5)cc4)c3)cc21 [GSK269962B] 58%

Data request, read-out remaining activity at 100 µM, for COc1cc2ncn(-c3cc(OCc4cccs4)c(C(N)=O)s3)c2cc1OC [GSK312948A] 72%

Data request, read-out remaining activity at 100 µM, for Cc1cc(Cl)cc2c1NC(=O)C2=NNc1ccc(S(N)(=O)=O)cc1 [GW279320X] 78%

###

# Target: E. coli MurF (Escherichia coli)
# Sequence (P11880 whole entry): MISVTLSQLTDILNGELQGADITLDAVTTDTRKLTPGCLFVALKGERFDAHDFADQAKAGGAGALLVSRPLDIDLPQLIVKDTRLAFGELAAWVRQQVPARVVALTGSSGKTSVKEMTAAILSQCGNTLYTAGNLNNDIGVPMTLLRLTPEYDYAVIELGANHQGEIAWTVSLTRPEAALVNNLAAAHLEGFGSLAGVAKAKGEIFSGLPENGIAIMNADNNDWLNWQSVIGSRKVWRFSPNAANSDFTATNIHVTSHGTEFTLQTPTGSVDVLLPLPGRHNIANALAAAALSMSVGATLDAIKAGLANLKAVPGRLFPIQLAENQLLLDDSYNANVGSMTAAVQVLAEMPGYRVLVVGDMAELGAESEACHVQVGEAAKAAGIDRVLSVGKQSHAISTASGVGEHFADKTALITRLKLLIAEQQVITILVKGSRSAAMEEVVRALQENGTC
# Test description: biochemical
# Details: 0.25 h, Table S1, PKIS screening; read-out: RA [%] at 100 µM MurF
Label key: Yes means remaining activity at 100 µM under 70%; No means remaining activity at 100 µM of 70% or more.

Reference set, count: 3
Molecule: COC(=O)c1sc(-n2cnc3cc(OC)c(OC)cc32)cc1OCc1ccccc1C(F)(F)F [GSK1030058A]
Answer label: Yes
//
Molecule: COc1cccc(-n2cnc3c(N/N=C/c4ccncc4)ncnc32)c1 [GW813360X]
Answer label: No
//
Molecule: CCc1cccc(CC)c1/C=C/c1cncc(C(=O)NC)c1 [GW450241X]
Answer label: No

Next item in the queue.
Take the molecule Fc1cccc(COc2ccc(Nc3ncnc4sc(-c5cccs5)cc34)cc2Cl)c1 [GW684626B] and say whether its remaining activity at 100 µM is less than 70%. No

###

# Target: E. coli MurD (Escherichia coli, UniProt P14900)
# Sequence (P14900 whole entry): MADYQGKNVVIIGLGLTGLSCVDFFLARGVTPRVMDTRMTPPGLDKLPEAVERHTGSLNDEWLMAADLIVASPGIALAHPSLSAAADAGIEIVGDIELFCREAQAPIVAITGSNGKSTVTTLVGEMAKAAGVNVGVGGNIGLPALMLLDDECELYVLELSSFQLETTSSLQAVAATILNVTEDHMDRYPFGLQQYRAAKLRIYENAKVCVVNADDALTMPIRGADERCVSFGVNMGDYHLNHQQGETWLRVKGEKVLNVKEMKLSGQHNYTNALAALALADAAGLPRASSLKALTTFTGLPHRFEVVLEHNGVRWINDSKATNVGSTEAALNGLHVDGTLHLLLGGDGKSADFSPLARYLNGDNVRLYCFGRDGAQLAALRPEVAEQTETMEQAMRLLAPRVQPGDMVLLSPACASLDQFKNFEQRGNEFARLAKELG
# Test description: biochemical
# Details: 0.25 h, Table S1, PKIS screening; read-out: RA [%] at 100 µM MurD
Assay metric: remaining activity at 100 µM (%)
# number only, unit % dropped from output

Compound: CCN(CC)Cc1ccc(Nc2nccc(-c3cnn4ncccc34)n2)cc1 [GW780056X]
Target: E. coli MurD (Escherichia coli, UniProt P14900)
Unit descriptor: %
Experimental result: 78
--
Compound: c1ccc(Nc2ncc(-c3ccccc3)o2)cc1 [GW549390X]
Target: E. coli MurD (Escherichia coli, UniProt P14900)
Unit descriptor: %
Experimental result: 92

Moving on to another compound below.
Data request, read-out remaining activity at 100 µM, for Fc1cccc(COc2ccc(Nc3ncncc3C#Cc3ccccc3)cc2Cl)c1 [GW651576X] 43

###

# Target: E. coli MurD (Escherichia coli)
# Test description: biochemical
# Details: Table 1; read-out: MurD IC50
Assay metric: IC50 (µM)
# number only, unit µM dropped from output

Solved cases below.
Molecule: Cc1cc(-c2ccco2)cc(C)c1/C=C/c1cncc(-c2nn[nH]n2)c1 [Compound 1]
Assay metric: IC50
Experimental result: 104
--
Molecule: N#Cc1ccc(Oc2nccc(-c3c(-c4ccc(F)cc4)ncn3C3CCNCC3)n2)cc1 [Compound 4]
Assay metric: IC50
Experimental result: 63
--
Molecule: CCCN1CCCC(c2ccc(Nc3nc(Nc4cc(F)ccc4C(N)=O)c4cc[nH]c4n3)c(OC)c2)C1 (stereo not shown) [Compound 5]
Assay metric: IC50
Experimental result: 32

Moving on to another molecule below.
Data request, read-out IC50, for Nc1ccc(C#Cc2cncnc2Nc2ccc(OCc3cccc(F)c3)c(Cl)c2)cc1 [Compound 2] 104

###

# Target: UniProt:P14900
# Test description: biochemical
# Details: 0.25 h, Table S1, PKIS screening; read-out: RA [%] at 100 µM MurD
Label key: Criterion met means remaining activity at 100 µM under 70%; Criterion not met means remaining activity at 100 µM of 70% or more.

Molecule: O=C1Nc2ccccc2/C1=C1\CCc2cc(O)ccc21 [GR105659X]
Answer label: Criterion not met
--
Molecule: CS(=O)(=O)CCNCc1ccc(-c2ccc3ncnc(Nc4ccc(OCc5ccccc5)c(Br)c4)c3c2)o1 [GW580496A]
Answer label: Criterion met
--
Molecule: NC(=O)c1sc(-n2cnc3ccccc32)cc1OCc1ccccc1Br [GSK1023156A]
Answer label: Criterion not met
--
Molecule: Cc1nn(C)c2cc(N(C)c3ccnc(Nc4cccc(S(N)(=O)=O)c4)n3)ccc12 [GW770220A]
Answer label: Criterion not met

Take the molecule NC(=O)Cc1ccccc1Oc1nccc(-c2c(-c3ccc(F)cc3)ncn2C2CCNCC2)n1 [SB-264865] and say whether its remaining activity at 100 µM is less than 70%. Criterion not met

Take the molecule CS(=O)(=O)CCNCc1ccc(-c2ccc3ncnc(Nc4ccc(OCc5ccccc5)c(Cl)c4)c3c2)o1 [GW574783B] and say whether its remaining activity at 100 µM is less than 70%. Criterion met

Take the molecule COc1cccc(-n2nc(C)c3c(N/N=C(\C)c4ccncc4)ncnc32)c1 [GW809885X] and say whether its remaining activity at 100 µM is less than 70%. Criterion not met

Take the molecule Nc1ccc(C#Cc2cncnc2Nc2ccc(OCc3cccc(F)c3)c(Cl)c2)cc1 [Compound 2] and say whether its remaining activity at 100 µM is less than 70%. Criterion met

###

Readings of remaining activity at 100 µM for the listed molecules
# Target: E. coli MurD (Escherichia coli, UniProt P14900)
# Test description: biochemical
# Details: 0.25 h, Table S1, PKIS screening; read-out: RA [%] at 100 µM MurD
# number only, unit % dropped from output

Solved cases below.
Molecule: O=C(Nc1n[nH]c2nc(-c3ccco3)c(Br)cc12)C1CC1 [SB-739452]
Target: E. coli MurD (Escherichia coli, UniProt P14900)
remaining activity at 100 µM (%): 84

Molecule: CNC(=O)c1cncc(/C=C/c2ccccc2Cl)c1 [GW445017X]
Target: E. coli MurD (Escherichia coli, UniProt P14900)
remaining activity at 100 µM (%): 87

Form field - read-out: remaining activity at 100 µM; system: E. coli MurD (Escherichia coli, UniProt P14900); submitted item: O=S(=O)(CCOCc1ccc(-c2ccc3ncnc(Nc4ccc(OCc5cccc(F)c5)c(Cl)c4)c3c2)o1)c1ccccc1 [GW615311X] 91

Form field - read-out: remaining activity at 100 µM; system: E. coli MurD (Escherichia coli, UniProt P14900); submitted item: CN(c1ccc(NC(=O)Nc2c(Cl)cccc2Cl)cc1)c1ccnc(Nc2cccc(CS(C)(=O)=O)c2)n1 [GW809897X] 55

Form field - read-out: remaining activity at 100 µM; system: E. coli MurD (Escherichia coli, UniProt P14900); submitted item: CCOc1ccc2c(-c3ccnc(Nc4cccc(C(F)(F)F)c4)n3)cnn2n1 [GW811761X] 93

Form field - read-out: remaining activity at 100 µM; system: E. coli MurD (Escherichia coli, UniProt P14900); submitted item: COc1cc2c(cc1Nc1nc(N3CCc4ccccc43)c3cc[nH]c3n1)N(C(=O)CN(C)C)CC2 [GSK2186269A] 100

Form field - read-out: remaining activity at 100 µM; system: E. coli MurD (Escherichia coli, UniProt P14900); submitted item: CC(C)c1ccc(-c2cc(-c3c[nH]nc3-c3ccccn3)ccn2)cc1 [GW682841X] 85

Form field - read-out: remaining activity at 100 µM; system: E. coli MurD (Escherichia coli, UniProt P14900); submitted item: Nc1nc(-c2ccc(F)cc2)c(-c2ccc3ncccc3n2)s1 [GW785804X] 82

###

Readings of remaining activity at 100 µM for the listed compounds
# Target: E. coli MurD (Escherichia coli, UniProt P14900)
# Test description: biochemical
# Details: 0.25 h, Table S1, PKIS screening; read-out: RA [%] at 100 µM MurD
# number only, unit % dropped from output

Compound: Fc1ccc(-c2c(-c3ccncc3)nc3n2CCS3)cc1
Unit descriptor: %
remaining activity at 100 µM: 91
//
Compound: COc1ccc2cc(-c3c(-c4ccncc4)nc(-c4ccc([S+](C)[O-])cc4)n3C)ccc2c1 (stereo not shown)
Unit descriptor: %
remaining activity at 100 µM: 58

Form field - read-out: remaining activity at 100 µM; system: E. coli MurD (Escherichia coli, UniProt P14900); submitted item: [O-][S+]1CCN(Cc2ccc(-c3ccc4ncnc(Nc5ccc(OCc6ccccc6)c(Cl)c5)c4c3)o2)CC1 [GW583373A] 59

Form field - read-out: remaining activity at 100 µM; system: E. coli MurD (Escherichia coli, UniProt P14900); submitted item: Cc1ccc2c(c1)C(=NNc1ccc(S(N)(=O)=O)cc1)C(=O)N2 [GW275944X] 87
